Sourced from patent US8569267B2

Listed here: items and their measured IC50.
molecular target: NET (norepinephrine transporter) (Rattus norvegicus); construct: Cortex from rat brain was collected and homogenised; from tissue; host or cells: rat brain cortex; test: In vitro determination of NET reuptake inhibition ([3H]Nixosetine binding, rat brain cortex); details: rat brain cortex, read-out: NET pIC50 (converted)
Write it as a number; the unit µM goes unstated.

• CCCOC(=O)NC1CCN(CC2CC3c4ccccc4Cc4ccc(F)cc4C3O2)CC1 (centres unmarked) = 7.08
• O=C(NC1CCN(CC2CC3c4ccccc4Cc4ccc(F)cc4C3O2)CC1)c1cccc(C(F)(F)F)c1 (centres unmarked) = 5.25

The molecule CC(=O)OC1CCN(C[C@H]2C[C@@H]3c4ccccc4Cc4ccc(F)cc4[C@@H]3O2)CC1 , tested on NET (norepinephrine transporter) (Rattus norvegicus), showed IC50 of 7.24

The molecule O=C(NC1CCN(CC2CC3c4ccccc4Cc4ccc(F)cc4C3O2)CC1)c1ccccc1Cl (centres unmarked) , tested on NET (norepinephrine transporter) (Rattus norvegicus), showed IC50 of 9.12

====

molecular target: human Dopamine D2L receptor (Homo sapiens); construct: expressed in transfected cells; host or cells: CHO cells; experiment: In vitro binding affinity for human D2L receptor ([3H]Spiperone binding); conditions: human D2L receptor-transfected CHO cell membranes, read-out: D2L pIC50 (converted)
Sequence (P14416 whole entry): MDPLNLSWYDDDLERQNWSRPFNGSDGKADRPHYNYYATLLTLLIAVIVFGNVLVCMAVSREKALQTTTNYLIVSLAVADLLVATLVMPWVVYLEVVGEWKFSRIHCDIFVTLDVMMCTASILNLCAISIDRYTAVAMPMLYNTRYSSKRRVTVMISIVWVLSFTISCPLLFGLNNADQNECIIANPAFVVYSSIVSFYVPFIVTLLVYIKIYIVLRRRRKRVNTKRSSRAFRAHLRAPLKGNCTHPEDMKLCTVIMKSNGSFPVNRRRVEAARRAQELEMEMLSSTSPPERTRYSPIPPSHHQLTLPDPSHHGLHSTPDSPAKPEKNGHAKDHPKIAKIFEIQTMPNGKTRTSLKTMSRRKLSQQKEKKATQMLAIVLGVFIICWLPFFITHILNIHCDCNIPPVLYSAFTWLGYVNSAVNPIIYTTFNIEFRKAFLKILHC
property-label: IC50 (nM)
Write it as a number; the unit nM goes unstated.

Example compounds with recorded IC50:
- OC1CCCN(CC2CC3c4ccccc4Cc4ccc(F)cc4C3O2)C1 (single isomer, unassigned) [Compound 143]: 12.6
- Fc1ccc2c(c1)C1OC(CN3CCC(NC(=S)NCCN4CCOCC4)CC3)CC1c1ccccc1C2 (stereo not shown): 24.5
- Fc1ccc2c(c1)C1OC(CN3CCN(c4cnccn4)CC3)CC1c1ccccc1C2 (stereo not shown): 40.7

Please turn your attention to the following entry.
Notebook: COc1ccc(OC2CCN(CC3CC4c5ccccc5Cc5ccc(F)cc5C4O3)C2)cc1 (mixture of isomers) , IC50 read as 7.94

====

biological target: human cloned 5-HT2A receptor, expressed in L929 cells (Homo sapiens, UniProt P28223); construct: expressed in transfected cells; host or cells: L929 cells; experiment: In vitro binding affinity for 5-HT2A receptor ([125I]R91150 radioligand binding); conditions: human cloned 5-HT2A receptor in L929 cells, [125I]R91150
Sequence (P28223 whole entry): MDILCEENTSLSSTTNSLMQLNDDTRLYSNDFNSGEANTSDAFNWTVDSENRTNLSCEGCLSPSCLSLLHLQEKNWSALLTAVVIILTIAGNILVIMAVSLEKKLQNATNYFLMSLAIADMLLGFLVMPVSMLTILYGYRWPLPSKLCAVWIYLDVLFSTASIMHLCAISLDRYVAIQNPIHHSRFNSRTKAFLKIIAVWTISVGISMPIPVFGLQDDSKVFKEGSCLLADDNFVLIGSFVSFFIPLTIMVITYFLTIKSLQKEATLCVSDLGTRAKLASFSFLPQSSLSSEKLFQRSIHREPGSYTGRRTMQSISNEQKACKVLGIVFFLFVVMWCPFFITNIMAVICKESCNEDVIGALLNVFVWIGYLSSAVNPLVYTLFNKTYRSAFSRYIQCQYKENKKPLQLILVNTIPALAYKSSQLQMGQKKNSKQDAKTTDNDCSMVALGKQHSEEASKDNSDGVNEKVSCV
Give y when the value for 5-HT2A pIC50 is at least 8. Give n when it is less.

* COc1ccc2c(c1)C1OC(CN3CCC(O)CC3)CC1c1ccccc1O2.O=C(O)C(=O)O (racemic) [Compound 287] | n
* O=C(O)C(=O)O.OC1CCN(CC2CC3c4ccccc4Oc4ccc(Br)cc4C3O2)CC1 (stereo not shown) | y

Exam item: Check the entry CC1CN(CC2CC3c4ccccc4Cc4ccc(F)cc4C3O2)C(C)CN1.O=C(O)C(=O)O (mixture of isomers) : does 5-HT2A pIC50 equal or exceed 8?
Marked response: n

====

biological target: human cloned 5-HT2C receptor, expressed in CHO cells (Homo sapiens); construct: expressed in transfected cells; host or cells: CHO cells; assay: In vitro binding affinity for 5-HT2C receptor ([3H]mesulergine radioligand binding); conditions: human cloned 5-HT2C receptor
Sequence (P28335 33-458): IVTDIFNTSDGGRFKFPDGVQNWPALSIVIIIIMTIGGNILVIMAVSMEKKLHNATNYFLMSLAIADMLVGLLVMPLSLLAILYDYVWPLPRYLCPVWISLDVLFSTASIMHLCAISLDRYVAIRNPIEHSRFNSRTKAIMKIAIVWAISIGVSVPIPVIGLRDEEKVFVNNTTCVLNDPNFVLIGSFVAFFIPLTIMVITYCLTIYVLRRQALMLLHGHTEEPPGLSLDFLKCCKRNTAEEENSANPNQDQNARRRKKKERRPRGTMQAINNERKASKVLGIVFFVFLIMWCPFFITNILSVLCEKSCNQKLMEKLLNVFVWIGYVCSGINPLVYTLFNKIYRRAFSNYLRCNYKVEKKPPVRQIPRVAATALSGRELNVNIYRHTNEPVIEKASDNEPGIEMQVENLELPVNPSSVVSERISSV
property-label: 5-HT2C pIC50

Example molecules with recorded 5-HT2C pIC50:
• N#CC1=CCN(C[C@H]2C[C@@H]3c4ccccc4Cc4ccc(F)cc4[C@@H]3O2)CC1.O=C(O)C(F)(F)F [Compound 270] = 7.45
• O=C(O)C(=O)O.OCCN1CCCN(C[C@H]2C[C@@H]3c4ccccc4Cc4ccc(F)cc4[C@@H]3O2)CC1 [Compound 269] = 8.14
• O=C(O)C(=O)O.O[C@H]1CCN(C[C@H]2C[C@@H]3c4ccccc4Cc4ccc(F)cc4[C@@H]3O2)C1 [Compound 3] = 9.57
• CC(=O)C1(c2ccccc2)CCN(C[C@H]2C[C@@H]3c4ccccc4Cc4ccc(F)cc4[C@@H]3O2)CC1.O=C(O)C(=O)O [Compound 273] = 8.24

Notebook: CC1c2ccccc2C2CC(CN3CCC(O)C3)OC2c2cc(F)ccc21.O=C(O)C(=O)O (mixture of isomers) [Compound 45] , 5-HT2C pIC50 read as 8.66

Notebook: Fc1ccc2c(c1)[C@@H]1O[C@@H](CN3CCc4ccccc4C3)C[C@@H]1c1ccccc1C2.O=C(O)C(F)(F)F [Compound 275] , 5-HT2C pIC50 read as 8.66

Notebook: Fc1ccc2c(c1)[C@@H]1O[C@@H](CN3CCCNCC3)C[C@@H]1c1ccccc1C2.O=C(O)C(=O)O.O=C(O)C(=O)O [Compound 267] , 5-HT2C pIC50 read as 7.65

Notebook: Fc1ccc2c(c1)[C@@H]1O[C@@H](CN3CC=CC3)C[C@@H]1c1ccccc1C2.O=C(O)C(=O)O [Compound 266] , 5-HT2C pIC50 read as 8.42

Notebook: O=C(O)C(=O)O.OCC1CCCN(C[C@H]2C[C@@H]3c4ccccc4Cc4ccc(F)cc4[C@@H]3O2)C1 (single isomer, unassigned) [Compound 149] , 5-HT2C pIC50 read as 9.10

Notebook: O=C(O)C(=O)O.OC1CCN(CC2CC3c4ccccc4Oc4ccc(Cl)cc4C3O2)CC1 (stereo not shown) [Compound 284] , 5-HT2C pIC50 read as 7.38

====

molecular target: NET (norepinephrine transporter) (Rattus norvegicus, UniProt Q63380); construct: Cortex from rat brain was collected and homogenised; from tissue; host or cells: rat brain cortex; experiment: In vitro determination of NET reuptake inhibition ([3H]Nixosetine binding, rat brain cortex); details: rat brain cortex, read-out: NET pIC50 (converted)
Sequence (Q63380 1-617): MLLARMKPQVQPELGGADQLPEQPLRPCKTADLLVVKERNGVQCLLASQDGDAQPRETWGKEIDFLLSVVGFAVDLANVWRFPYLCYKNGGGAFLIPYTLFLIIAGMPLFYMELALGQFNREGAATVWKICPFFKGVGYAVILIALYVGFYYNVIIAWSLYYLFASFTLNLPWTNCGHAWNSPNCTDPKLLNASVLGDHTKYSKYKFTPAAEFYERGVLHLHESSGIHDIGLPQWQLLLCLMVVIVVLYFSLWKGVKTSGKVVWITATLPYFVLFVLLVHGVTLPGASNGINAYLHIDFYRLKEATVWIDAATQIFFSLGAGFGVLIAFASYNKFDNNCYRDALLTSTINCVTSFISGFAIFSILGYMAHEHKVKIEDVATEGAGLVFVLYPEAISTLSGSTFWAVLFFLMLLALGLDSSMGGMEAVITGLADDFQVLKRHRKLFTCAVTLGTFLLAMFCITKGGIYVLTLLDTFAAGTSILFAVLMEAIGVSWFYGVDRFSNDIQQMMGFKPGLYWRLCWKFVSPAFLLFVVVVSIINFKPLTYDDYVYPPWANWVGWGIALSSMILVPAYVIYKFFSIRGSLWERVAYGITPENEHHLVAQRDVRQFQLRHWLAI
Listed here: items and their measured IC50.

Example compounds with recorded IC50:
* CCOC(=O)C1CCN(C[C@H]2C[C@@H]3c4ccccc4Cc4ccc(F)cc4[C@@H]3O2)CC1 | > 10 µM
* COc1ccc(NC(=S)N2CCN(CC3CC4c5ccccc5Cc5ccc(F)cc5C4O3)CC2)cc1 (stereo not shown) | 0.933 µM

Notebook: O=C(NC1CCCCC1)OCC1CCN(CC2CC3c4ccccc4Cc4ccc(F)cc4C3O2)C1 (mixture of isomers) , IC50 read as 1.45 µM

Notebook: CCCCOC(=O)NC1CCN(CC2CC3c4ccccc4Cc4ccc(F)cc4C3O2)CC1 (stereo not shown) , IC50 read as 4.37 µM

Notebook: Fc1ccc2c(c1)[C@@H]1O[C@@H](CN3CCN(c4cccc(C(F)(F)F)n4)CC3)C[C@@H]1c1ccccc1C2 , IC50 read as 4.07 µM

Notebook: O=C(Nc1ccccc1)OCC1CCN(CC2CC3c4ccccc4Cc4ccc(F)cc4C3O2)C1 (mixture of isomers) , IC50 read as 2.51 µM

Notebook: Cc1onc(-c2ccccc2Cl)c1C(=O)NC1CCN(CC2CC3c4ccccc4Cc4ccc(F)cc4C3O2)CC1 (stereo not shown) , IC50 read as > 10 µM

====

biological target: human cloned 5-HT2A receptor, expressed in L929 cells (Homo sapiens); construct: expressed in transfected cells; host or cells: L929 cells; assay: In vitro binding affinity for 5-HT2A receptor ([125I]R91150 radioligand binding); details: human cloned 5-HT2A receptor in L929 cells, [125I]R91150; read-out: 5-HT2A pIC50 (converted)
property-label: log10 IC50 (log10 of the value in nM)
Record value = log10 of IC50 given in nM.

Example compounds with recorded log10 IC50:
* COc1cccc(N2CCN(CC3CC4c5ccccc5Cc5ccc(F)cc5C4O3)CC2)n1 (stereo not drawn) [Compound 118] | 0.69
* O=C(Nc1ccccc1)OCC1CCN(CC2CC3c4ccccc4Cc4ccc(F)cc4C3O2)C1 (mixture of isomers) [Compound 22] | 0.49
* O=C(OC1CCN(CC2CC3c4ccccc4Cc4ccc(F)cc4C3O2)C1)C1CCCC1 (mixture of isomers) [Compound 14] | 0.62
* CCS(=O)(=O)N1CCN(CC2CC3c4ccccc4Cc4ccc(F)cc4C3O2)CC1 (stereo not drawn) [Compound 103] | 0.89
* O=C(NC(=S)N1CCN(CC2CC3c4ccccc4Cc4ccc(F)cc4C3O2)CC1)c1ccccc1 (stereo not drawn) [Compound 111] | 0.59

Notebook: Fc1ccc(OC2CCN(CC3CC4c5ccccc5Cc5ccc(F)cc5C4O3)C2)cc1 (mixture of isomers) [Compound 36] , log10 IC50 read as 1.09

Notebook: Fc1ccc2c(c1)C1OC(CN3CCC(N4CCCCC4)CC3)CC1c1ccccc1C2 (stereo not drawn) [Compound 172] , log10 IC50 read as 1.18

Notebook: O=C(c1ccccc1)N1CCN(CC2CC3c4ccccc4Cc4ccc(F)cc4C3O2)CC1 (stereo not drawn) [Compound 82] , log10 IC50 read as 0.33

Notebook: Cc1ccc(C(=O)OC2CCN(CC3CC4c5ccccc5Cc5ccc(F)cc5C4O3)C2)cc1 (mixture of isomers) [Compound 15] , log10 IC50 read as 0.90

Notebook: O=[N+]([O-])c1ccc(-c2ccc(CN3CCN(CC4CC5c6ccccc6Cc6ccc(F)cc6C5O4)CC3)o2)cc1 (stereo not drawn) [Compound 63] , log10 IC50 read as 1.44

Notebook: CS(=O)(=O)N1CCN(CC2CC3c4ccccc4Cc4ccc(F)cc4C3O2)CC1 (stereo not drawn) [Compound 102] , log10 IC50 read as 0.67

Notebook: CCOC(=O)CC1CN(C[C@H]2C[C@@H]3c4ccccc4Cc4ccc(F)cc4[C@@H]3O2)CCO1 (stereo partly drawn) [Compound 135] , log10 IC50 read as 1.05

Notebook: C=CS(=O)(=O)N1CCN(CC2CC3c4ccccc4Cc4ccc(F)cc4C3O2)CC1 (stereo not drawn) [Compound 104] , log10 IC50 read as 0.92

Notebook: Cc1ccc(S(=O)(=O)N2CCN(CC3CC4c5ccccc5Cc5ccc(F)cc5C4O3)CC2)cc1 (stereo not drawn) [Compound 107] , log10 IC50 read as 1.92

Notebook: CCCCNC(=S)N1CCN(C[C@H]2C[C@@H]3c4ccccc4Cc4ccc(F)cc4[C@@H]3O2)CC1 [Compound 108] , log10 IC50 read as 0.66

Notebook: Fc1ccc2c(c1)C1OC(CN3CCN(Cc4ccc5ccccc5c4)CC3)CC1c1ccccc1C2 (stereo not drawn) [Compound 74] , log10 IC50 read as 2.10

Notebook: O=C(C1CCN(CC2CC3c4ccccc4Cc4ccc(F)cc4C3O2)CC1)N1CC=CC1 (stereo not drawn) [Compound 201] , log10 IC50 read as -0.21
